# target_or_system: NADPH oxidase 5 (Homo sapiens)
# test_name: NOX5-dependent H2O2 signal modulators, primary screen, NOX inhibitor project, cell-based, HEK293-NOX5, Amplex Red fluorescence (AID 1161)
# condition_set: HEK293-NOX5, ionomycin, 45 min, higher = more signal
Give z-score for every item shown.
Answer with a bare number; do not write a unit.

## Task Name the reported z-score value associated with the compound [N-]=[N+]=NCc1ccccc1C[C@]1(C(=O)N2CCCCC2)COC(c2ccc(OCCCO)cc2)=N1
## Result -1.38

## Task Name the reported z-score value associated with the compound CC[C@@H](O[Si](C#C[Si](C(C)C)(C(C)C)C(C)C)(C(C)C)C(C)C)c1cn(Cc2cccc(Cl)c2)nn1
## Result -1.62

## Task Name the reported z-score value associated with the compound CC(C)(C)OC(=O)CC[C@]1(C(N)=O)N=C(c2ccc(OCCCO)cc2)O[C@H]1c1ccccc1N=[N+]=[N-]
## Result -1.19
